# Tested on: AncSZ;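 further: 11-residue human phosphosite peptides and single-mutation variants displayed on the E. coli surface, counted by deep sequencing, each peptide's frequency after selection divided by its frequency in the unselected input library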;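 further: frequency after pTyr selection over input frequency; kinase dosed for 20-30% of maximal phosphorylation in three min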
# procedureSummary: phosphorylation enrichment, bacterial display (enrichment ratio); higher = better substrate or ligand; peptides without Tyr show the background
The label depends only on phosphorylation enrichment: criterion met if it is at least 0.9, criterion not met if it is smaller.

Query :: Can KGPNVCKKTVN [REV3L_Y1156_Y1156C] be said to have phosphorylation enrichment at or above 0.9?
Result :: criterion not met

Query :: Record RAIDMYLMGCF [GABRB2_Y308_K303R] ; criterion: phosphorylation enrichment no lower than 0.9. Met?
Result :: criterion met

Query :: Is it the case that AIGFEYSEINI [SIGLEC12_Y588_YF] has phosphorylation enrichment reaching or exceeding 0.9?
Result :: criterion met

Query :: Does phosphorylation enrichment meet or surpass 0.9 for ENFDDYMKDVG [FABP4_Y20_E23D] ?
Result :: criterion met

Query :: Say whether FQKDVYNIPPS [NEDD9_Y177_D178N_YF] shows phosphorylation enrichment of 0.9 or more.
Result :: criterion not met

Query :: Check the entry GGPTFYIDTNA [ACTL6A_Y69_YF] : does phosphorylation enrichment equal or exceed 0.9?
Result :: criterion met

Query :: Evaluate KDHPDYKFQPR [SOX10_Y171_YF] : phosphorylation enrichment at minimum 0.9?
Result :: criterion not met

Query :: Could you please find out whether VNTTLYEKFTY [TEK_Y1108] has phosphorylation enrichment that meets 0.9 or exceeds it?
Result :: criterion met

Query :: Does the reported phosphorylation enrichment for SFPHEYGSQEG [RBM10_Y48_R46H_YF] fall at or above the 0.9 mark?
Result :: criterion not met

Query :: Given the entry YCRHNYGVVES [HLA-DRB1_Y112] , answer whether its phosphorylation enrichment meets or surpasses 0.9.
Result :: criterion not met

Query :: Reported phosphorylation enrichment reaches at least 0.9 for QGLRLYRTHLA [BTK_Y617_P619T] ?
Result :: criterion not met

Query :: Is phosphorylation enrichment for EPDSLYGCGRG [ATM_Y2019_G2023R] at or above 0.9?
Result :: criterion met

Query :: Is phosphorylation enrichment at least 0.9? Consider DFFDLYGGQKF [PTPN11_Y66_E69Q_YF]
Result :: criterion met

Query :: Decide: phosphorylation enrichment of LFMGDYVDRGF [PPP2CA_Y86_YF] >= 0.9?
Result :: criterion met

Query :: Confirm if phosphorylation enrichment reported for the sequence GRVLGYGTFGK [FLT4_Y853_A855T] is 0.9 or above.
Result :: criterion not met

Query :: Reported phosphorylation enrichment reaches at least 0.9 for DEEPPYRGPFC [SASH1_Y551] ?
Result :: criterion not met

Query :: Dear colleague, could you confirm whether EYITRYIDSLK [PSMA7_Y110_A112D] has phosphorylation enrichment at or above 0.9?
Result :: criterion not met

Query :: Entry RGLQVYHKRNA [LRP2_Y2010_R2012K] : is its phosphorylation enrichment no less than 0.9?
Result :: criterion not met

Query :: Evaluate MKKQKYGRIIM [HSD17B4_Y143] : phosphorylation enrichment at minimum 0.9?
Result :: criterion not met

Query :: # check: phosphorylation enrichment of VATRWYRSPEP [CDKL5_Y177_L182P] is greater than or equal to 0.9
Result :: criterion not met

Query :: Confirm if phosphorylation enrichment reported for the sequence SSFPDYLAAVD [GLB1_Y154_D151Y_YF] is 0.9 or above.
Result :: criterion met

Query :: Please tell me: is the sequence SRLSAYPALEG [CD5_Y465_H461R] at or over 0.9 in terms of phosphorylation enrichment?
Result :: criterion not met

Query :: Could you verify whether the entry DHCNQYEQQKM [CHD7_Y75_Y72C] shows phosphorylation enrichment of no less than 0.9?
Result :: criterion not met

Query :: I'd appreciate it if you could say whether SLQAHYDTPRS [DOK7_Y405_R402Q] has phosphorylation enrichment at least equal to 0.9.
Result :: criterion not met

Query :: Dear colleague, could you confirm whether FDDIAYIRKNL [PIK3CA_Y1021_T1025N] has phosphorylation enrichment at or above 0.9?
Result :: criterion not met

Query :: State whether the measured phosphorylation enrichment reaches 0.9, counting equality as reaching it, for LITTPYIGFLG [KCNQ1_Y267_L266P]
Result :: criterion not met

Query :: Could you please find out whether GGGMFYPLDLF has phosphorylation enrichment that meets 0.9 or exceeds it?
Result :: criterion met

Query :: Entry GSSEDYLHMVH [NIPBL_Y247] : is its phosphorylation enrichment no less than 0.9?
Result :: criterion met

Query :: Kindly determine if phosphorylation enrichment recorded for KICDWYQRQRP [KRT14_Y151_R148C] is above or exactly 0.9.
Result :: criterion met

Query :: phosphorylation enrichment >= 0.9 for GIVKAYFVHAR [AIPL1_Y267_R270H_YF] ?
Result :: criterion not met

Query :: Quick check: does TEAGDYKLCFD [TMED1_Y103] have phosphorylation enrichment greater than or equal to 0.9?
Result :: criterion met

Query :: Is the recorded value of phosphorylation enrichment equal to or greater than 0.9 for this sequence? GEVLVYAEDPA [FLNA_Y319_V320A]
Result :: criterion met

Query :: Quick check: does LEDDMYRKTCT [XPA_Y257] have phosphorylation enrichment greater than or equal to 0.9?
Result :: criterion met

Query :: Does the sequence FQKNSYSEELR [LMNA_Y211_I210S] have recorded phosphorylation enrichment that is 0.9 or more?
Result :: criterion not met

Query :: Entry PGVNFYFQVSA : is its phosphorylation enrichment no less than 0.9?
Result :: criterion met

Query :: Is reported phosphorylation enrichment greater than or equal to 0.9 here: DRIVNYSRASI [ATP7A_Y1459]
Result :: criterion not met

Query :: Record IYRASYVPFAA [RBM47_Y541_G538R] ; criterion: phosphorylation enrichment no lower than 0.9. Met?
Result :: criterion met

Query :: Hello, I need to know if SFHSSYSEIKD [DCLRE1C_Y322] has measured phosphorylation enrichment not below 0.9. Thanks!
Result :: criterion not met

Query :: // inclusive: phosphorylation enrichment at least 0.9? input: SREALYNEMDP [CACNA1A_Y794]
Result :: criterion met

Query :: For this sequence, is measured phosphorylation enrichment 0.9 or higher? PLGKDYRKAEG [MAP1A_Y1909]
Result :: criterion not met

Query :: Threshold query (phosphorylation enrichment >= 0.9) on KDQGGYTMHQD [MAPT_Y29]
Result :: criterion not met

Query :: Record RRNEIYEIKVD [LGR5_Y387_H383R] ; criterion: phosphorylation enrichment no lower than 0.9. Met?
Result :: criterion met

Query :: Is it the case that MCITQYERESQ [PRNP_Y218] has phosphorylation enrichment reaching or exceeding 0.9?
Result :: criterion not met

Query :: Check if phosphorylation enrichment >= 0.9 (inclusive). Item: REESTYLPLTS [ICAM3_Y527]
Result :: criterion met

Query :: Decide: is the reported value of phosphorylation enrichment for AFDNLYFWDQD [ERBB2_Y1221_YF] equal to or greater than 0.9?
Result :: criterion met

Query :: Does the reported phosphorylation enrichment for IKETHYMVDRC fall at or above the 0.9 mark?
Result :: criterion met

Query :: Given the entry GHNDVYILEHV [GRIN2A_Y1423_S1425L] , answer whether its phosphorylation enrichment meets or surpasses 0.9.
Result :: criterion not met

Query :: // inclusive: phosphorylation enrichment at least 0.9? input: NVVHEYSSELE [FGB_Y172_N170H]
Result :: criterion met

Query :: I'd appreciate it if you could say whether GHEEFYSTHPH [LRRK2_Y1402_R1398H] has phosphorylation enrichment at least equal to 0.9.
Result :: criterion not met

Query :: Is reported phosphorylation enrichment greater than or equal to 0.9 here: YRAPGYREVVI [TNS2_Y673]
Result :: criterion not met

Query :: Entry LEIETDRRLLD [KRT12_Y429_Y429D] : is its phosphorylation enrichment no less than 0.9?
Result :: criterion met
